Tested on: BT-474
Assay: relative IC50 (midpoint of fitted logistic curve, plateau may be below 50% inhibition; CellTiter-Glo viability); higher = less potent
Details: 4-OH-tamoxifen in medium 1 µM; 72 h
Where a name gives a salt, the structure may show the parent alone.
Label satisfied when relative IC50 >= 700 nM; otherwise not satisfied.

Before answering, review these 6 worked examples.
* Cc1cc(Nc2nc(N[C@@H](C)c3ncc(F)cn3)ncc2Cl)[nH]n1 [AZD1480] | satisfied
* Cc1[nH]c2ccccc2c1CCNCc1ccc(/C=C/C(=O)NO)cc1 [Panobinostat] | not satisfied
* Cc1nc(Nc2ncc(C(=O)Nc3c(C)cccc3Cl)s2)cc(N2CCN(CCO)CC2)n1 [Dasatinib] | satisfied
* Cn1c(Nc2ccc(C(F)(F)F)cc2)nc2cc(Oc3ccnc(-c4ncc(C(F)(F)F)[nH]4)c3)ccc21 [RAF265] | satisfied
* Cc1ccc(NC(=O)c2ccc(CN3CCN(C)CC3)cc2)cc1Nc1nc(-c2cccnc2)cs1 [Masitinib] | satisfied
* COCC1(CO)C(=O)C2CCN1CC2 (stereo not given) [Prima-1 Met] | satisfied

Exam item: decide whether the reported relative IC50 for CC/C(=C(\c1ccc(O)cc1)c1ccc(OCCN(C)C)cc1)c1ccccc1 [4-hydroxytamoxifen] is at least 700 nM.
satisfied

Exam item: decide whether the reported relative IC50 for O=C(/C=C/c1cccc(S(=O)(=O)Nc2ccccc2)c1)NO [Belinostat (PXD101)] is at least 700 nM.
not satisfied

Exam item: decide whether the reported relative IC50 for NCCCNCCSP(=O)(O)O [Amifostine] is at least 700 nM.
satisfied

Exam item: decide whether the reported relative IC50 for c1cc(CN2CCCNCCNCCCNCC2)ccc1CN1CCCNCCNCCCNCC1 [Plerixafor] is at least 700 nM.
satisfied

Exam item: decide whether the reported relative IC50 for Cn1cc(CNCC2CCN(c3ncc(C(=O)NO)cn3)CC2)c2ccccc21 is at least 700 nM.
not satisfied

Exam item: decide whether the reported relative IC50 for CC(C)C[C@H](NC(=O)[C@@H](COC(C)(C)C)NC(=O)[C@H](Cc1ccc(O)cc1)NC(=O)[C@H](CO)NC(=O)[C@H](Cc1c[nH]c2ccccc12)NC(=O)[C@H](Cc1cnc[nH]1)NC(=O)[C@@H]1CCC(=O)N1)C(=O)N[C@@H](CCCNC(=N)N)C(=O)N1CCC[C@H]1C(=O)NNC(N)=O [Goserelin acetate] is at least 700 nM.
satisfied

Exam item: decide whether the reported relative IC50 for O=C(c1ccc(OCCN2CCCCC2)cc1)c1c(-c2ccc(O)cc2)sc2cc(O)ccc12 [Raloxifene HCl] is at least 700 nM.
satisfied

Exam item: decide whether the reported relative IC50 for COc1cc2c(Oc3ccc4[nH]c(C)cc4c3F)ncnc2cc1OCCCN1CCCC1 [Cediranib (AZD2171, Recentin)] is at least 700 nM.
not satisfied

Exam item: decide whether the reported relative IC50 for Oc1nc(-c2ccc(C(F)(F)F)cc2)nc2c1CSCC2 [XAV-939] is at least 700 nM.
satisfied
